Test system: OVCAR4
experimental-details: Euclidean distance of Cell Painting phenotypic profile (signed KS, 77 features) to DMSO centroid (dimensionless distance); 5 or 10 uM (library dependent); higher = stronger phenotypic change vs DMSO (phenoactivity)
details: 48 h
// label = 1 (yes) if Euclidean distance is not less than 1, otherwise 0 (no)

Example results:
[[record]]
compound = "CC(C)(O)c1ccccc1CC[C@@H](SCC1(CC(=O)O)CC1)c1cccc(/C=C/c2ccc3ccc(Cl)cc3n2)c1 [Montelukast Sodium]"
qualitative_label = "0 (no)"

[[record]]
compound = "Cc1cc(O)c2c(c1)C(=O)c1cc(O)cc(O)c1C2=O [Emodin]"
qualitative_label = "0 (no)"

[[record]]
compound = "COC(=O)Nc1nc2cc(C(=O)c3ccccc3)ccc2[nH]1 [Mebendazole]"
qualitative_label = "1 (yes)"

[[record]]
compound = "COc1ccccc1OCCNCC(O)COc1cccc2[nH]c3ccccc3c12 (configuration not stated) [Carvedilol]"
qualitative_label = "1 (yes)"

[[record]]
compound = "CC[C@H](C)[C@H](N)C1=N[C@H](C(=O)N[C@@H](CC(C)C)C(=O)N[C@H](CCC(=O)[O-])C(=O)N[C@H](C(=O)N[C@H]2CCCCNC(=O)[C@H](CC(N)=O)NC(=O)[C@@H](CC(=O)[O-])NC(=O)[C@H](Cc3cnc[nH]3)NC(=O)[C@@H](Cc3ccccc3)NC(=O)[C@H]([C@@H](C)CC)NC(=O)[C@@H](CCCN)NC2=O)[C@@H](C)CC)CS1.[Zn+2] [Bacitracin Zinc]"
qualitative_label = "1 (yes)"


Input: Does the reported Euclidean distance for O=c1oc2ccccc2c(O)c1Cc1c(O)c2ccccc2oc1=O [Dicoumarol] fall at or above the 1 mark?
Output: 0 (no)

Origin of values: the supplement of paper PMC10127200
